# system under test: Mitogen-activated protein kinase kinase kinase 8 (Homo sapiens, UniProt P41279)
# Sequence (P41279 whole entry): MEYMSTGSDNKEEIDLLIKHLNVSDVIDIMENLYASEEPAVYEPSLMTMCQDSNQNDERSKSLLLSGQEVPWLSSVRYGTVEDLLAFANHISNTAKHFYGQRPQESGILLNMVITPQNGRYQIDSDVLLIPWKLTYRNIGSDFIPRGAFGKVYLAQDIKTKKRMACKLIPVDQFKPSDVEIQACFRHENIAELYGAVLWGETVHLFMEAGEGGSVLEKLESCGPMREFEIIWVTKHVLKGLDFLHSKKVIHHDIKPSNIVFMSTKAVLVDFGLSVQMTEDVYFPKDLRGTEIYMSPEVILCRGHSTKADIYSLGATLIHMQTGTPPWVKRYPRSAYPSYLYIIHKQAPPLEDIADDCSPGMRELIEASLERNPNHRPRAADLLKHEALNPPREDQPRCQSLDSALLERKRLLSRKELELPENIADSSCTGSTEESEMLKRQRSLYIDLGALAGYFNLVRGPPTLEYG
# run description: Inhibition of Tpl2
pIC50: −log10 of the molar value.
reported metric: pIC50

| chemical smiles | result |
| --- | --- |
| CCOC(=O)c1cnn2c(-c3cccc(NC(=O)c4cccc(C(F)(F)F)c4)c3)ccnc12 | < 5.00 |

---

Catalogue of IC50 readings, one per entry.
# system under test: Serine/threonine-protein kinase B-raf (Homo sapiens)
# Sequence (P15056 whole entry): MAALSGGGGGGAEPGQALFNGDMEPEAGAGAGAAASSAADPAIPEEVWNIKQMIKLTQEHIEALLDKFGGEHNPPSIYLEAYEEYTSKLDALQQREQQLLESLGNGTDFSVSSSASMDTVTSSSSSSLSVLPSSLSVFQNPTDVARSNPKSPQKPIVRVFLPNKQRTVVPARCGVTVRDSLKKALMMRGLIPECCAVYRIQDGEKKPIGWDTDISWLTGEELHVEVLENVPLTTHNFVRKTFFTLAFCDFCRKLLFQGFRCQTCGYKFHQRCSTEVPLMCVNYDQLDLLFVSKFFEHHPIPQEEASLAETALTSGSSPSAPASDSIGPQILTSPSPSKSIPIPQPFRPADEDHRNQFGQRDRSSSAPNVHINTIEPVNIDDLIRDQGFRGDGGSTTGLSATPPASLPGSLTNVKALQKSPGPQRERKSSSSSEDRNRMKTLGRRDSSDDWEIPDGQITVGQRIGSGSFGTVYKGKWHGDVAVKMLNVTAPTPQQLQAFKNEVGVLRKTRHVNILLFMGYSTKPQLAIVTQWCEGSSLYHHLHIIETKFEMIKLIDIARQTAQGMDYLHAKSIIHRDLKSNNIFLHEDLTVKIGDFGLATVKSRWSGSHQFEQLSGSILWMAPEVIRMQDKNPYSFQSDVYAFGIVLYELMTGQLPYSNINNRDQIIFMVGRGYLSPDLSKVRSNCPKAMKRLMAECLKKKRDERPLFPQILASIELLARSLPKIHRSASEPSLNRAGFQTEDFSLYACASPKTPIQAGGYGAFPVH
# run description: Inhibition of human recombinant B-Raf expressed in Sf9 cells assessed as inhibition of Mek1 phosphorylation
reported metric: IC50 (µM)

| chemical smiles | inequality sign | readout number |
| --- | --- | --- |
| CCOC(=O)c1cnn2c(-c3cccc(NC(=O)Nc4cc(C(F)(F)F)ccc4Cl)c3)ccnc12 | > | 10 |
| CCOC(=O)c1cnn2c(-c3cccc(NC(=O)Nc4ccc(F)c(C(F)(F)F)c4)c3)ccnc12 | = | 0.24 |
| CCOC(=O)c1cnn2c(-c3cccc(NC(=O)c4ccccc4)c3)ccnc12 | > | 10 |
| O=C(Nc1cccc(-c2ccnc3c(C(=O)NCCN4CCOCC4)cnn23)c1)Nc1ccc(Cl)c(C(F)(F)F)c1 | = | 0.16 |
| CCOC(=O)c1cnn2c(-c3cccc(NC(=O)Nc4cccc(Cl)c4)c3)ccnc12 | > | 10 |
| O=C(Nc1cccc(-c2ccnc3c(C(=O)NCCN4CCOCC4)cnn23)c1)c1cccc(C(F)(F)F)c1 | = | 6.34 |
